- System: Wnt5a (protein binding on small-molecule microarray)
- assay.overview: Wnt5a binders on small-molecule microarray, primary screen, biophysical, 635/667 nm fluorescence (AID 1142);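 note: fluorescence read at 667 nm with signal to noise per printed feature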
- cond: 635 nm fluorescence, higher = more signal
Decide using composite z-score: a value greater than or equal to 0.2 is Y, a smaller one is N.

Reported composite z-score reaches at least 0.2 for COc1ccc(O[C@H]2C=C[C@@H](c3ccccc3)O[C@@H]2COC(=O)CCC(C)=NOC(C)CN2CCCc3nc(C)c(C)cc32)cc1 (stereo partly drawn) ?
N

Reported composite z-score reaches at least 0.2 for C[C@@H]1NC(=O)[C@@H](C)COC(=O)[C@H](C)NC(=O)[C@@H](C)COC1=O ?
N

Reported composite z-score reaches at least 0.2 for CC(CCN1CCCc2nc(C)c(C)cc21)=NOC(C)CN1CCCCc2nc(C)c(C)cc21 (stereo not drawn) ?
Y

Reported composite z-score reaches at least 0.2 for CC(C)=CCCC(C)=CCON=C1C[C@@H](O)[C@@H](O)[C@@H]2[C@@H]3C(=O)N(C4CCCCC4)C(=O)[C@@H]3CC[C@@H]12 ?
Y

Reported composite z-score reaches at least 0.2 for CC(C)=CCCC(C)=CCON=C1C[C@@H](O)[C@@H](O)[C@@H]2[C@@H]3C(=O)N(C(C)(C)C)C(=O)[C@@H]3CC[C@H]12 ?
N

Reported composite z-score reaches at least 0.2 for C=CC[C@@H]1C=C[C@H](ON=C(C)CCC(=O)OC[C@H]2O[C@H](c3ccccc3)C=C[C@@H]2Oc2ccc(OC)cc2)[C@@H](CO)O1 ?
N

Reported composite z-score reaches at least 0.2 for CCCCc1nc2c(c3c1C[C@H](C)OC3)CN(CCOc1ccccc1)CC2 ?
N

Reported composite z-score reaches at least 0.2 for C[C@@H]1C=CCC(=O)OC[C@H]2O[C@@H](C=C[C@@H]2O)[C@H](C)C=CCC(=O)OC1 ?
N

----------
- Test system: XIP peptide (Xip251-270)
- assay.overview: small-molecule binders of XIP peptide, primary screen, biochemical, small-molecule microarray, fluorescence 635/667 nm, 0.5 µg/mL protein (AID 1183)
- cond: small-molecule microarray binding, fluorescence 635 nm; higher = more signal
endpoint: composite z-score

The reported composite z-score of the compound CC(CCN1CCCCc2nc(C)c(C)cc21)=NOC[C@@H](O)COCc1ccco1 was 0.863

The reported composite z-score of the compound CC(C)CON=C1C[C@@H](O)[C@@H](O)[C@@H]2[C@@H]3C(=O)N(C4CCCCC4)C(=O)[C@@H]3CC[C@@H]12 was 0.0112

The reported composite z-score of the compound O=C(NN=C1C[C@@H](O)[C@@H](O)[C@@H]2[C@@H]3C(=O)N(C[C@@H]4CCCO4)C(=O)[C@@H]3CC[C@@H]12)OCc1ccccc1 was 0.126

The reported composite z-score of the compound CC(CCN1CCCc2nc(C)c(C)cc21)=NOC(C)CN1CCCCc2nc(C)c(C)cc21 (configuration not stated) was 0.725

The reported composite z-score of the compound COc1ccc(O[C@H]2C=C[C@@H](c3ccccc3)O[C@@H]2COC(=O)CCC(C)=NOC[C@@H](O)[C@H]2O[C@@H]3OC(C)(C)O[C@@H]3[C@H]2O)cc1 was -0.0871

The reported composite z-score of the compound CCN1C(=O)[C@H]2[C@H]3[C@H](O)[C@H](O)CC(=NOCC(C)C)[C@@H]3CC[C@H]2C1=O was 0.645

The reported composite z-score of the compound O=C1[C@H]2[C@H]3[C@H](O)[C@H](O)CC(=NOCc4ccccc4)[C@@H]3CC[C@H]2C(=O)N1c1ccc(F)cc1F was 0.0159

----------
- assay.overview: basal MM1S mitochondrial membrane potential changes, profiling panel, cell-based, JC-1 fluorescence, 24 h, 100 nL compound (AID 1170)
- cond: higher = more signal
Please use the following z-score ranges when assigning a class: label 0 (below -0.9), label 1 (-0.9 to below 0.01), label 2 (0.01 or more)

Could you tell me which band CC(C)=NO[C@H](C)c1cn([C@H](CO)Cc2ccccc2)nn1 belongs to?
label 2

Could you tell me which band CO[C@H]1COC(=O)CC=C[C@H](C)[C@@H](OC)COC(=O)[C@@H](C)COC(=O)CC=C[C@@H]1C belongs to?
label 2

Could you tell me which band COc1ccc(O[C@H]2C=C[C@@H](c3ccccc3)O[C@@H]2CON=C(C)CCC(=O)OC[C@H]2O[C@H](c3ccccc3)C=C[C@@H]2Oc2ccc(OC)cc2)cc1 belongs to?
label 1

Could you tell me which band CCN1C(=O)[C@H]2[C@H]3[C@H](O)[C@H](O)CC(=NO[C@@H](C)c4cn([C@H](CO)Cc5ccccc5)nn4)[C@@H]3CC[C@H]2C1=O belongs to?
label 2

Could you tell me which band COc1ccc(O[C@@H]2[C@H](O)CO[C@H]2C=Cc2ccccc2)cc1 belongs to?
label 1

Could you tell me which band COc1ccc(COC(=O)NN=C2C[C@@H](O)[C@@H](O)[C@@H]3[C@@H]4C(=O)N(c5cccc(Oc6ccccc6)c5)C(=O)[C@@H]4CC[C@@H]23)cc1 belongs to?
label 1

Could you tell me which band CCN1C(=O)[C@@H]2[C@H]3C(=CC[C@@H]2C1=O)C1(OCCCO1)[C@H]1O[C@H]1[C@H]3O belongs to?
label 0

Could you tell me which band C[n+]1ccc(-c2ccc(CO)cc2)cc1 belongs to?
label 2

Could you tell me which band C#CCCCON=C1C[C@@H](O)[C@@H](O)[C@@H]2[C@@H]3C(=O)N(c4cccc(Oc5ccccc5)c4)C(=O)[C@@H]3CC[C@H]12 belongs to?
label 0

Could you tell me which band CC(CCN1CCc2nc(-c3ccccc3)c(-c3ccccc3)cc2C1)=NOC[C@@H](O)[C@H]1O[C@@H]2OC(C)(C)O[C@@H]2[C@H]1O belongs to?
label 2

Could you tell me which band C=CC[C@@H]1C=C[C@H](ON=C2[C@H]3CCn4c(=O)n(-c5ccccc5)c(=O)n4[C@H]3[C@H](O)[C@@H]3O[C@H]23)[C@@H](CO)O1 belongs to?
label 2

Could you tell me which band CCN1C(=O)[C@H]2[C@H]3[C@H](O)[C@H](O)CC(=NNC(=O)OCc4ccc(OC)cc4)[C@@H]3CC[C@H]2C1=O belongs to?
label 1

Could you tell me which band C#CCCCON=C1C[C@@H](O)[C@@H](O)[C@@H]2[C@@H]3C(=O)N(CCC(=O)OCC)C(=O)[C@@H]3CC[C@H]12 belongs to?
label 0

Could you tell me which band CCOC(=O)[C@H](CC(C)C)NC(=O)CCC1CC(OC(=O)NCc2cccc3ccccc23)CC2(CCCC(COC(=O)NCCOC)O2)O1 (some centres undefined) belongs to?
label 1

Could you tell me which band O=C1C2=CC[C@H]3C(=O)N(c4cccc(Oc5ccccc5)c4)C(=O)[C@H]3[C@H]2[C@H](O)[C@@H]2O[C@H]12 belongs to?
label 0

Could you tell me which band CO[C@H]1COC(=O)[C@@H]2CCCN2C(=O)CC=C[C@@H](C)[C@H](OC)COC(=O)[C@@H](OCc2ccccc2)C=C[C@@H]1C belongs to?
label 1

Could you tell me which band CO[C@@H]1COC(=O)[C@H](CCSC)NC(=O)CC=C[C@@H](C)COC(=O)[C@H](C)NC(=O)CC=C[C@H]1C belongs to?
label 2

Could you tell me which band CC1O[C@H]2C3=C(C(=O)[C@@H]4O[C@@H]4[C@H]3O)[C@@H]1C1[C@@H](C)OC=C3[C@H](O)C4O[C@@H]4C(=NOCc4ccccc4)[C@]312 (some centres undefined) belongs to?
label 0

Could you tell me which band CCCNC(=O)OC[C@H]1O[C@H](c2ccccc2)C=C[C@@H]1Oc1ccc(OC)cc1 belongs to?
label 2

Could you tell me which band CCOC(=O)CCN1C(=O)[C@H]2[C@H]3[C@H](O)[C@H](O)CC(=NNC(=O)OCc4ccccc4)[C@@H]3CC[C@H]2C1=O belongs to?
label 1

Could you tell me which band C#CCCCON=C1C[C@@H](O)[C@@H](O)[C@@H]2[C@@H]3C(=O)N(c4ccc(F)cc4F)C(=O)[C@@H]3CC[C@H]12 belongs to?
label 0

Could you tell me which band O=C(NN=C1C[C@@H](O)[C@@H](O)[C@@H]2[C@@H]3C(=O)N(Cc4ccccc4)C(=O)[C@@H]3CC[C@@H]12)OCc1ccccc1 belongs to?
label 0

Could you tell me which band CCCNC(=O)OC[C@H]1O[C@H](CCON=C(C)CCC(=O)OC[C@H]2O[C@H](c3ccccc3)C=C[C@@H]2Oc2ccc(OC)cc2)C=C[C@@H]1Oc1ccc(OC)cc1 belongs to?
label 2

Could you tell me which band CC(=O)O[C@H]1C2=CO[C@H](C)[C@H]3[C@H]4C5=C([C@H](O)[C@H]6O[C@H]6C5=O)[C@H](OC4C)[C@@]23C(=O)[C@@H]2O[C@@H]21 (some centres undefined) belongs to?
label 0

Could you tell me which band CC(CCN1CCCCc2nc(C)c(C)cc21)=NOC[C@@H](O)COCc1ccco1 belongs to?
label 1

Could you tell me which band CO[C@H]1COC(=O)[C@H](C)NC(=O)CC=C[C@@H](C)[C@H](OC)COC(=O)[C@@H](OCc2ccccc2)C=C[C@@H]1C belongs to?
label 2

Could you tell me which band CCOC(=O)[C@H](Cc1ccccc1)NC(=O)CCC1CC(OC(=O)NCCc2ccc(F)cc2)CC2(CCCC(COC(=O)NCCOC)O2)O1 (some centres undefined) belongs to?
label 0

Could you tell me which band CC(C)CON=C1C[C@@H](O)[C@@H](O)[C@@H]2[C@@H]3C(=O)N(C(C)(C)C)C(=O)[C@@H]3CC[C@H]12 belongs to?
label 1
